- System: M. pneumoniae 427a
measure: MIC (µg/mL)

INSERT INTO assay_data (molecule, study_target, prefix_operator, result) VALUES
  ('COC(=O)CCCCCCCCNC(=O)C=C(C)CC1OCC(CC2OC2C(C)C(C)O)C(O)C1O (stereo not drawn) [Example 7]', 'M. pneumoniae 427a', '=', 10),
  ('COC(=O)CNC(=O)C=C(C)CC1OCC(CC2OC2C(C)C(C)O)C(O)C1O (stereo not drawn) [Example 3]', 'M. pneumoniae 427a', '=', 250),
  ('C=CCNC(=O)C=C(C)CC1OCC(CC2OC2C(C)C(C)O)C(O)C1O (stereo not drawn) [Example 8, Allylamide of monic acid A]', 'M. pneumoniae 427a', '=', 10),
  ('CC(=CC(=O)N(C)C)CC1OCC(CC2OC2C(C)C(C)O)C(O)C1O (stereo not drawn) [Example 4, Dimethylamide of monic acid A]', 'M. pneumoniae 427a', '>', 10),
  ('CNC(=O)C=C(C)CC1OCC(CC2OC2C(C)C(C)O)C(O)C1O (stereo not drawn) [Example 2, N-Methylamide of monic acid A]', 'M. pneumoniae 427a', '=', 125),
  ('COC(=O)CCCCCNC(=O)C=C(C)CC1OCC(CC2OC2C(C)C(C)O)C(O)C1O (stereo not drawn) [Example 9]', 'M. pneumoniae 427a', '=', 5),
  ('CC(=CC(N)=O)CC1OCC(CC2OC2C(C)C(C)O)C(O)C1O (stereo not drawn) [Example 1, Primary amide of monic acid A]', 'M. pneumoniae 427a', '=', 250),
  ('CC(=CC(=O)N1CCOCC1)CC1OCC(CC2OC2C(C)C(C)O)C(O)C1O (stereo not drawn) [Example 6, Morpholinyl amide of monic acid A]', 'M. pneumoniae 427a', '>', 10),
  ('CCOC(=O)CCCCCNC(=O)C=C(C)CC1OCC(CC2OC2C(C)C(C)O)C(O)C1O (stereo not drawn) [Example 5]', 'M. pneumoniae 427a', '>', 10);

----------
Below: a set of entries, each annotated with reported MIC.
- Tested on: Strep. uberis SPU 1
- experiment: MIC, veterinary bacteria
- Format: cell-based
- condition.notes: Streptococcus uberis, SPU1; Strep. uberis SPU 1; read-out: M.I.C.
measure: MIC (µg/mL)

INSERT INTO assay_data (compound, u, result) VALUES
  ('C=CCNC(=O)C=C(C)CC1OCC(CC2OC2C(C)C(C)O)C(O)C1O (stereo not drawn) [Example 8, Allylamide of monic acid A]', 'µg/mL', 0.625),
  ('CC(=CC(=O)N1CCOCC1)CC1OCC(CC2OC2C(C)C(C)O)C(O)C1O (stereo not drawn) [Example 6, Morpholinyl amide of monic acid A]', 'µg/mL', 2.5),
  ('CCOC(=O)CCCCCNC(=O)C=C(C)CC1OCC(CC2OC2C(C)C(C)O)C(O)C1O (stereo not drawn)', 'µg/mL', 0.35);

----------
- experiment: Mouse blood levels
- Format: in vivo, male albino mice, CS1 strain
- condition.notes: blood, sc, 10 minutes after dosing, 50 mg/kg subcutaneous, mean of 5 experiments, assay Neisseria catarrhalis, read-out: Concentration (blood level)
measure: concentration at 10 min (ng/mL)

INSERT INTO assay_data (compound, measure, u, result) VALUES
  ('C/C(=C\C(=O)OCCCCCCCCC(=O)O)C[C@@H]1OC[C@H](C[C@@H]2O[C@H]2[C@@H](C)[C@H](C)O)[C@@H](O)[C@H]1O [Pseudomonic Acid, reference compound]', 'concentration at 10 min', 'ng/mL', 3700),
  ('CCOC(=O)CCCCCNC(=O)C=C(C)CC1OCC(CC2OC2C(C)C(C)O)C(O)C1O (centres unmarked)', 'concentration at 10 min', 'ng/mL', 22600);

----------
Below: a set of entries, each annotated with reported MIC.
- Test system: Neisseria catarrhalis 1502
- experiment: MIC, serial dilution in nutrient agar, human bacteria
- Type: cell-based
- condition.notes: Neisseria catarrhalis 1502; nutrient agar containing 5% chocolated horse blood; read-out: M.I.C.
measure: MIC

INSERT INTO assay_data (compound, measure, result) VALUES
  ('CC(=CC(=O)N(C)C)CC1OCC(CC2OC2C(C)C(C)O)C(O)C1O (stereo not shown) [Example 4, Dimethylamide of monic acid A]', 'MIC', '2.5 µg/mL'),
  ('CC(=CC(=O)N1CCOCC1)CC1OCC(CC2OC2C(C)C(C)O)C(O)C1O (stereo not shown) [Example 6, Morpholinyl amide of monic acid A]', 'MIC', '5 µg/mL'),
  ('COC(=O)CCCCCNC(=O)C=C(C)CC1OCC(CC2OC2C(C)C(C)O)C(O)C1O (stereo not shown) [Example 9]', 'MIC', '< 0.02 µg/mL'),
  ('C=CCNC(=O)C=C(C)CC1OCC(CC2OC2C(C)C(C)O)C(O)C1O (stereo not shown) [Example 8, Allylamide of monic acid A]', 'MIC', '100 µg/mL');
